Give pIC50 for every item shown.
Target: human SCD1 (Homo sapiens)
Construct: expressed in transfected cells; host or cells: yeast strain with OLE1 deleted, plasmid-borne human SCD1 (selected in SD-Ura)
Sequence (O00767 whole entry): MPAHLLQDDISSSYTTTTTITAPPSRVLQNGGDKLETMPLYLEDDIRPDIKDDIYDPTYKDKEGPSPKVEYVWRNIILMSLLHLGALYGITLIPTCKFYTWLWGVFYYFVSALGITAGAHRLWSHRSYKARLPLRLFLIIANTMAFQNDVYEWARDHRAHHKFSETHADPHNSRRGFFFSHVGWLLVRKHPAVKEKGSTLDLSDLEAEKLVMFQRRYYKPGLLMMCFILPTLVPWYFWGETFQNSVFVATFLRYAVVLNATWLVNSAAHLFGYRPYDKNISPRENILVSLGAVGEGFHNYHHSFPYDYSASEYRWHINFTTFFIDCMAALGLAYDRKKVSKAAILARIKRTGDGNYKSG
Experiment: Growth inhibition of yeast strain expressing human SCD1 as sole desaturase (OLE1 deleted), OD600 readout
Type: cell-based
Details: yeast strain expressing human SCD1 as sole desaturase; growth (OD600) after 40 h at 30° C.; read-out: SCD1 IC50
pIC50: −log10 of the molar value.

According to the records, this molecule "Cc1ccnc(Cc2ccc(NC(=O)C3=NN(C)C(=O)CC3)nc2)c1" displays pIC50 of < 4.35

According to the records, this molecule "N#Cc1ccc(C(=O)Nc2ccc(Cc3ccc(F)c(Cl)c3)cn2)nc1" displays pIC50 of < 4.35

According to the records, this molecule "Cn1cc(C(=O)Nc2ccc(Cc3cncc(Cl)c3)cn2)ccc1=O" displays pIC50 of < 4.35
